Cited source for all entries: patent US10022376B2

tested on: rhIFNγ stimulated STAT-3 phosphorylation in the A549 human epithelial cell line; assay: A549 Cell Assay: Inhibition of pSTAT3; assay type: cell-based; conditions: Homo sapiens; A549 cells
recorded metric: IC50

Solved entries (count: 10):
compound	IC50
CNC(=O)c1n[nH]c2cc(-c3cc(F)c(O)cc3CC(F)(F)F)nc(NCc3cnccc3N(C)S(C)(=O)=O)c12	> 10000 nM
CNC(=O)c1n[nH]c2cc(-c3cc(F)c(O)cc3C3CC3)nc(NCc3cccnc3N(C)S(C)(=O)=O)c12	385 nM
CCc1cc(O)c(F)cc1-c1cc2[nH]nc(C(=O)NC)c2c(NCc2ccccc2N(CC)S(C)(=O)=O)n1	14.9 nM
CCN(c1ncc(Cl)cc1CNc1nc(-c2cc(F)c(O)cc2CC(F)(F)F)cc2[nH]nc(C(N)=O)c12)S(C)(=O)=O	110 nM
CCN(c1ccc(O)cc1CNc1nc(-c2cc(F)c(O)cc2CC(F)(F)F)cc2[nH]nc(C(N)=O)c12)S(=O)(=O)c1ccccc1	764 nM
CCS(=O)(=O)N(C)c1ccccc1CNc1nc(-c2cc(F)c(O)cc2CC(F)(F)F)cc2[nH]nc(C(=O)NC)c12	96.7 nM
CNC(=O)c1n[nH]c2cc(-c3cc(F)c(O)cc3CC(F)(F)F)nc(NCc3ccc(O)cc3N(C)S(C)(=O)=O)c12	490 nM
CNC(=O)c1n[nH]c2cc(-c3cc(F)c(O)cc3CC(F)(F)F)nc(NCc3cccnc3N(C)S(C)(=O)=O)c12	21.3 nM
CCc1cc(O)c(F)cc1-c1cc2[nH]nc(C(=O)NC)c2c(NCc2cc(C)ccc2N(C)S(C)(=O)=O)n1	35.6 nM
CCc1cc(O)c(F)cc1-c1cc2[nH]ncc2c(NCc2ccccc2N(CC)S(C)(=O)=O)n1	5.4 nM

Now look at this one.
Query :: Return IC50 measured with rhIFNγ stimulated STAT-3 phosphorylation in the A549 human epithelial cell line given this compound: CN(c1ccc(O)cc1CNc1nc(-c2cc(F)c(O)cc2CC(F)(F)F)cc2[nH]nc(C(N)=O)c12)S(C)(=O)=O
Result :: 398 nM
